As shown below, each of these molecules has a reported mean geometric MIC, Vancomycin Sensitive Strains value.
Tested on: vancomycin-susceptible enterococci
experimental-protocol: broth micro-dilution, mean geometric MIC
Format: cell-based, Enterococcus faecium and Enterococcus faecalis
conditions: enterococci, 24-hour incubation
observation-type: mean geometric MIC, Vancomycin Sensitive Strains (µg/mL)

molecule: CCCc1ccc(-c2ccc(CNC3(C)CC(OC4C(Oc5c6cc7cc5Oc5ccc(cc5Cl)C(OC5CC(C)(N)C(O)C(C)O5)C5NC(=O)C(NC(=O)C7NC(=O)C(CC(N)=O)NC(=O)C(NC(=O)C(CC(C)C)NC)C(O)c7ccc(c(Cl)c7)O6)c6ccc(O)c(c6)-c6c(O)cc(O)cc6C(C(=O)O)NC5=O)OC(CO)C(O)C4O)OC(C)C3O)cc2)cc1 (stereo not drawn)
tested-on: vancomycin-susceptible enterococci
value-measured: 0.082

molecule: CNC(CC(C)C)C(=O)NC1C(=O)NC(CC(N)=O)C(=O)NC2C(=O)NC3C(=O)NC(C(=O)NC(C(=O)O)c4cc(O)cc(O)c4-c4cc3ccc4O)C(OC3CC(C)(N)C(O)C(C)O3)c3ccc(c(Cl)c3)Oc3cc2cc(c3OC2OC(CO)C(O)C(O)C2OC2CC(C)(NCc3ccc(OCc4ccccc4)c(OC)c3)C(O)C(C)O2)Oc2ccc(cc2Cl)C1O (stereo not drawn)
tested-on: vancomycin-susceptible enterococci
value-measured: 0.11

molecule: C=CCCCCCCCCNC1(C)CC(OC2C(Oc3c4cc5cc3Oc3ccc(cc3Cl)C(OC3CC(C)(N)C(O)C(C)O3)C3NC(=O)C(NC(=O)C5NC(=O)C(CC(N)=O)NC(=O)C(NC(=O)C(CC(C)C)NC)C(O)c5ccc(c(Cl)c5)O4)c4ccc(O)c(c4)-c4c(O)cc(O)cc4C(C(=O)O)NC3=O)OC(CO)C(O)C2O)OC(C)C1O (stereo not drawn)
tested-on: vancomycin-susceptible enterococci
value-measured: 0.024

Data origin: patent US5840684A
